test target: Amaranthus palmeri cytosolic GS1.1 R291C
protocol notes: GS enzyme inhibition assay, GS1.1 R291C
measurement context: read-out: Glufosinate‐ammonium IC50
quantity measured: IC50

[in] Give its IC50 value. Item: CP(=O)(O)CCC(N)C(=O)O (stereo not shown) [Glufosinate‐ammonium]
[out] > 10 mM

----------
test target: Amaranthus palmeri cytosolic GS1.1 R311P
protocol notes: GS enzyme inhibition assay, GS1.1 R311P
measurement context: read-out: Glufosinate‐ammonium IC50
quantity measured: IC50

[in] Hi! What's the reported IC50 for CP(=O)(O)CCC(N)C(=O)O (stereo not shown) [Glufosinate‐ammonium] on Amaranthus palmeri cytosolic GS1.1 R311P?
[out] > 10 mM

----------
test target: Amaranthus palmeri cytosolic GS1.1 Y158T
protocol notes: GS enzyme inhibition assay, GS1.1 Y158T
measurement context: read-out: Glufosinate‐ammonium IC50
quantity measured: pIC50
Convention used: pIC50 is expressed as -log10 of the molar concentration.

[in] Give its pIC50 value. Item: CP(=O)(O)CCC(N)C(=O)O (stereo not shown) [Glufosinate‐ammonium]
[out] 4.12

----------
test target: Amaranthus palmeri cytosolic GS1.1 T60Q
protocol notes: GS enzyme inhibition assay, GS1.1 T60Q
Type: biochemical
measurement context: read-out: Glufosinate‐ammonium IC50
quantity measured: pIC50
Convention used: pIC50 is expressed as -log10 of the molar concentration.

[in] Give its pIC50 value. Item: CP(=O)(O)CCC(N)C(=O)O (stereo not shown) [Glufosinate‐ammonium]
[out] 3.44

----------
test target: Amaranthus palmeri cytosolic GS1.1 WT
protocol notes: GS enzyme inhibition assay, GS1.1 WT
Type: biochemical
measurement context: Table 2 panel, read-out: Glufosinate‐ammonium IC50
quantity measured: IC50
Reply with the number, then its unit.

[in] Give its IC50 value. Item: CP(=O)(O)CCC(N)C(=O)O (stereo not shown) [Glufosinate‐ammonium]
[out] 22.5 µM

----------
test target: Amaranthus palmeri cytosolic GS1.1 R291S
protocol notes: GS enzyme inhibition assay, GS1.1 R291S
Type: biochemical
measurement context: read-out: Glufosinate‐ammonium IC50
pIC50: −log10 of the molar value.
quantity measured: pIC50

[in] Hi! What's the reported pIC50 for CP(=O)(O)CCC(N)C(=O)O (stereo not shown) [Glufosinate‐ammonium] on Amaranthus palmeri cytosolic GS1.1 R291S?
[out] < 2.00

----------
test target: Amaranthus palmeri cytosolic GS1.1 K165S
protocol notes: GS enzyme inhibition assay, GS1.1 K165S
measurement context: read-out: Glufosinate‐ammonium IC50
quantity measured: IC50 (µM)
Quick reminder: number only, in µM, skip the unit.

[in] Give its IC50 value. Item: CP(=O)(O)CCC(N)C(=O)O (stereo not shown) [Glufosinate‐ammonium]
[out] 7.6

----------
test target: Amaranthus palmeri cytosolic GS1.1 R38E
protocol notes: GS enzyme inhibition assay, GS1.1 R38E
measurement context: read-out: Glufosinate‐ammonium IC50
quantity measured: pIC50
Convention used: pIC50 is expressed as -log10 of the molar concentration.

[in] Give its pIC50 value. Item: CP(=O)(O)CCC(N)C(=O)O (stereo not shown) [Glufosinate‐ammonium]
[out] 5.32

----------
test target: Amaranthus palmeri cytosolic GS1.1 E192Q
protocol notes: GS enzyme inhibition assay, GS1.1 E192Q
measurement context: read-out: Glufosinate‐ammonium IC50
pIC50: −log10 of the molar value.
quantity measured: pIC50

[in] Hi! What's the reported pIC50 for CP(=O)(O)CCC(N)C(=O)O (stereo not shown) [Glufosinate‐ammonium] on Amaranthus palmeri cytosolic GS1.1 E192Q?
[out] < 2.00

----------
test target: Amaranthus palmeri cytosolic GS1.1 G155F
protocol notes: GS enzyme inhibition assay, GS1.1 G155F
measurement context: read-out: Glufosinate‐ammonium IC50
quantity measured: IC50 (µM)
Quick reminder: number only, in µM, skip the unit.

[in] Give its IC50 value. Item: CP(=O)(O)CCC(N)C(=O)O (stereo not shown) [Glufosinate‐ammonium]
[out] 254

----------
test target: Eleusine indica GS1.1 S59G
protocol notes: GS enzyme inhibition assay, ELEIN GS1.1 S59G
quantity measured: IC50 (µM)
Quick reminder: number only, in µM, skip the unit.

[in] Give its IC50 value. Item: CP(=O)(O)CCC(N)C(=O)O (stereo not shown) [Glufosinate‐ammonium]
[out] 19

----------
test target: Amaranthus palmeri cytosolic GS1.1 R291G
protocol notes: GS enzyme inhibition assay, GS1.1 R291G
measurement context: read-out: Glufosinate‐ammonium IC50
Method: GS activity was determined spectrophotometrically following the Sigma‐Aldrich enzymatic assay protocol. The reaction couples the ATP‐dependent conversion of L‐glutamate and ammonium to L‐glutamine with pyruvate kinase (PK) and L‐lactate dehydrogenase (LDH), such that oxidation of β‐NADH to β‐NAD^+ can be monitored at 340 nm. Recombinant GS from A. palmeri was expressed in E. coli, purified by affinity chromatography, and quantified by the Bradford method using bovine serum albumin as standard. […]
pIC50: −log10 of the molar value.
quantity measured: pIC50

[in] Give its pIC50 value. Item: CP(=O)(O)CCC(N)C(=O)O (stereo not shown) [Glufosinate‐ammonium]
[out] < 2.00

----------
test target: Amaranthus palmeri cytosolic GS1.1 V161N
protocol notes: GS enzyme inhibition assay, GS1.1 V161N
measurement context: read-out: Glufosinate‐ammonium IC50
quantity measured: IC50 (µM)
Quick reminder: number only, in µM, skip the unit.

[in] Give its IC50 value. Item: CP(=O)(O)CCC(N)C(=O)O (stereo not shown) [Glufosinate‐ammonium]
[out] 64

----------
test target: Amaranthus palmeri cytosolic GS1.1 S59N
protocol notes: GS enzyme inhibition assay, GS1.1 S59N
measurement context: read-out: Glufosinate‐ammonium IC50
quantity measured: pIC50
Convention used: pIC50 is expressed as -log10 of the molar concentration.

[in] Hi! What's the reported pIC50 for CP(=O)(O)CCC(N)C(=O)O (stereo not shown) [Glufosinate‐ammonium] on Amaranthus palmeri cytosolic GS1.1 S59N?
[out] 4.40

----------
test target: Amaranthus palmeri cytosolic GS1.1 R316E
protocol notes: GS enzyme inhibition assay, GS1.1 R316E
measurement context: read-out: Glufosinate‐ammonium IC50
quantity measured: pIC50
Convention used: pIC50 is expressed as -log10 of the molar concentration.

[in] Give its pIC50 value. Item: CP(=O)(O)CCC(N)C(=O)O (stereo not shown) [Glufosinate‐ammonium]
[out] 3.71

----------
test target: Amaranthus palmeri cytosolic GS1.1 E297A
protocol notes: GS enzyme inhibition assay, GS1.1 E297A
Assay type: biochemical
measurement context: read-out: Glufosinate‐ammonium IC50
quantity measured: pIC50
Convention used: pIC50 is expressed as -log10 of the molar concentration.

[in] Give its pIC50 value. Item: CP(=O)(O)CCC(N)C(=O)O (stereo not shown) [Glufosinate‐ammonium]
[out] 5.16

----------
test target: Amaranthus palmeri cytosolic GS1.1 R316A
protocol notes: GS enzyme inhibition assay, GS1.1 R316A
measurement context: read-out: Glufosinate‐ammonium IC50
quantity measured: IC50 (µM)
Quick reminder: number only, in µM, skip the unit.

[in] Give its IC50 value. Item: CP(=O)(O)CCC(N)C(=O)O (stereo not shown) [Glufosinate‐ammonium]
[out] 313

----------
test target: Amaranthus palmeri cytosolic GS1.1 G245S
protocol notes: GS enzyme inhibition assay, GS1.1 G245S
measurement context: read-out: Glufosinate‐ammonium IC50
pIC50: −log10 of the molar value.
quantity measured: pIC50

[in] Give its pIC50 value. Item: CP(=O)(O)CCC(N)C(=O)O (stereo not shown) [Glufosinate‐ammonium]
[out] < 2.00

----------
test target: Amaranthus palmeri cytosolic GS1.1 R34A
protocol notes: GS enzyme inhibition assay, GS1.1 R34A
measurement context: read-out: Glufosinate‐ammonium IC50
quantity measured: IC50 (µM)
Quick reminder: number only, in µM, skip the unit.

[in] Give its IC50 value. Item: CP(=O)(O)CCC(N)C(=O)O (stereo not shown) [Glufosinate‐ammonium]
[out] 182

----------
test target: Amaranthus palmeri cytosolic GS1.1 S174E
protocol notes: GS enzyme inhibition assay, GS1.1 S174E
measurement context: read-out: Glufosinate‐ammonium IC50
quantity measured: pIC50
Convention used: pIC50 is expressed as -log10 of the molar concentration.

[in] Give its pIC50 value. Item: CP(=O)(O)CCC(N)C(=O)O (stereo not shown) [Glufosinate‐ammonium]
[out] 6.00

----------
test target: Amaranthus palmeri cytosolic GS1.1 R291L
protocol notes: GS enzyme inhibition assay, GS1.1 R291L
measurement context: read-out: Glufosinate‐ammonium IC50
quantity measured: IC50

[in] Give its IC50 value. Item: CP(=O)(O)CCC(N)C(=O)O (stereo not shown) [Glufosinate‐ammonium]
[out] > 10 mM

----------
test target: Amaranthus palmeri cytosolic GS1.1 H249N
protocol notes: GS enzyme inhibition assay, GS1.1 H249N
Format: biochemical
measurement context: read-out: Glufosinate‐ammonium IC50
quantity measured: IC50

[in] Give its IC50 value. Item: CP(=O)(O)CCC(N)C(=O)O (stereo not shown) [Glufosinate‐ammonium]
[out] > 10 mM

----------
test target: Amaranthus palmeri cytosolic GS1.1 R291H
protocol notes: GS enzyme inhibition assay, GS1.1 R291H
measurement context: read-out: Glufosinate‐ammonium IC50
pIC50: −log10 of the molar value.
quantity measured: pIC50

[in] Give its pIC50 value. Item: CP(=O)(O)CCC(N)C(=O)O (stereo not shown) [Glufosinate‐ammonium]
[out] < 2.00
